System: T-47D breast
Measurement Protocol: NCI-60 one-dose screen, 48 h (100 = growth as untreated, 0 = no growth, -100 = all killed)
Condition Info: 10 µM unless noted
About 83,000 compounds went through this panel and 20% of them were active in at least one assay; those are over-represented in the sample as a whole.
Parameter growth: see the listing below.
Reported Endpoint: growth (%)

>>> quantitative_readout("COc1ccc(/C=N/N=C(/c2ccccc2)c2ccc3nc(-c4ccc(Cl)cc4)[nH]c3c2)cc1")
63.5
>>> quantitative_readout("CN1CCN(CCNc2nc(-c3cccc(NS(=O)(=O)c4cccc5c(N(C)C)cccc45)c3)cs2)CC1")
39.6
>>> quantitative_readout("CC(C)(C)c1cc(NC(=O)Nc2ccc(-c3cn4c5c(sc4n3)CCc3cn(CCCN4CCCCC4)cc3-5)cc2)no1")
-32.8
>>> quantitative_readout("O=C(/C=C/C=C/c1csc(Br)n1)NO")
103
>>> quantitative_readout("COc1ccc(/C(=N\\N=C(N)N)c2ccc(Cl)cc2)cc1OC")
68
>>> quantitative_readout("CC(=O)Nc1nc(C)c(-c2csc(Nc3ccccc3)n2)s1")
7.07
>>> quantitative_readout("Oc1ccc(-c2nc3ccc(/C(=N\\N=C\\c4ccc(Cl)cc4)c4ccccc4)cc3[nH]2)cc1")
79.9
